assay: physchem; settings: water, 37 °C, thermodynamic from solid
Property Name: solubility (µg/mL)
Return type: number; implicit unit µg/mL.

Query string: Which measured solubility value corresponds to Sc1ncnc2nc[nH]c12 [Monohydrate, mercaptopurine monohydrate] ?
Result string: 249
